Assay: Single-dose capsule administration in human cancer patients, concentration-time profiles
Details: in vivo, oral, 10 mg, capsules of example 95A, Dose 10 mg, Day 35, read-out: C12 hr
Protocol: Administration of the capsules described in example 95A in Human Cancer Patients.Human cancer patients were administered a single dose of the 1 mg or 10 mg capsule composition described above in example 95A. […] The concentration-time profiles were monitored and are shown in FIG. 4 and in the table below: […]

- molecule: "COc1cc(F)c(F)c(Nc2ccc(I)cc2F)c1NS(=O)(=O)C1(C[C@H](O)CO)CC1"
  concentration at 12 h: "1.01 ng/mL"

---

Experiment: Single-dose capsule administration in human cancer patients, concentration-time profiles
Settings: in vivo, oral, 2 mg, capsules of example 95A, Dose 2 mg, Day 35, read-out: C12 hr

- compound: "COc1cc(F)c(F)c(Nc2ccc(I)cc2F)c1NS(=O)(=O)C1(C[C@H](O)CO)CC1 [Compound no. 1021]"
  concentration at 12 h: "0.0756 ng/mL"

---

Tested on: phosphorylated ERK in MDA-MB-231 breast cancer cells
Test: Western blotting for phosphorylated ERK in MDA-MB-231 cells (EC50 data)
Format: cell-based
Conditions: Homo sapiens, 0.5 h, 30 min compound, EGF stimulation, read-out: MDA pERK ELISA EC50

- molecule: "CCN(C)CCS(=O)(=O)Nc1ccc(F)c(F)c1Nc1ccc(I)cc1F"
  EC50: "100 to 200 nM"
- molecule: "O=S(=O)(Nc1ccc(F)c(F)c1Nc1ccc(-c2cn[nH]c2)cc1F)C1CC1"
  EC50: "> 200 nM"
- molecule: "CN(C)CCNCCS(=O)(=O)Nc1ccc(F)c(F)c1Nc1ccc(I)cc1F"
  EC50: "15 to 100 nM"
- molecule: "O=S(=O)(Nc1ccc(F)c(F)c1Nc1ccc(-c2cccnc2)cc1F)C1CC1"
  EC50: "> 200 nM"
- molecule: "Cn1cc(-c2ccc(Nc3c(NS(=O)(=O)C4CC4)ccc(F)c3F)c(F)c2)cn1"
  EC50: "> 200 nM"
- molecule: "CS(=O)(=O)Nc1ccc(-c2ccc(Nc3c(NS(=O)(=O)C4CC4)ccc(F)c3F)c(F)c2)cc1"
  EC50: "> 200 nM"
- molecule: "CNCCS(=O)(=O)Nc1ccc(F)c(F)c1Nc1ccc(I)cc1F"
  EC50: "15 to 100 nM"
- molecule: "CC(=O)c1cccc(-c2ccc(Nc3c(NS(=O)(=O)C4CC4)ccc(F)c3F)c(F)c2)c1"
  EC50: "> 200 nM"

---

Assay: Single-dose capsule administration in human cancer patients, concentration-time profiles
Settings: in vivo, oral, 2 mg, capsules of example 95A, Dose 2 mg, Day 1, read-out: C12 hr

- molecule: "COc1cc(F)c(F)c(Nc2ccc(I)cc2F)c1NS(=O)(=O)C1(C[C@H](O)CO)CC1"
  concentration at 12 h [ng/mL]: 0.0378

---

Test system: phosphorylated ERK in MDA-MB-231 breast cancer cells
Assay: Western blotting for phosphorylated ERK in MDA-MB-231 cells (EC50 data)
Format: cell-based
Conditions: Homo sapiens, 0.5 h, 30 min compound, EGF stimulation, read-out: MDA pERK ELISA EC50
EC50 by entry:
reportedEndpoint: EC50

- compound: "O=S(=O)(Nc1ccc(F)c(F)c1Nc1ccc(-c2cc[nH]n2)cc1F)C1CC1 [compound 0497654]"
  reportedEndpoint: "EC50"
  reportedValue: "0.1 to 0.2 µM"
- compound: "O=S(=O)(Nc1ccc(F)c(F)c1Nc1ccc(-c2ccccc2)cc1F)C1CC1 [compound 0497692]"
  reportedEndpoint: "EC50"
  reportedValue: "> 0.2 µM"
- compound: "O=S(=O)(Nc1ccc(F)c(F)c1Nc1ccc(I)cc1F)c1ccc(-c2nsc(Cl)n2)s1 [compound 0530701]"
  reportedEndpoint: "EC50"
  reportedValue: "0.1 to 0.2 µM"
- compound: "Cn1cc(S(=O)(=O)Nc2ccc(F)c(F)c2Nc2ccc(I)cc2F)c(C(F)(F)F)n1 [compound 0621026]"
  reportedEndpoint: "EC50"
  reportedValue: "0.1 to 0.2 µM"
- compound: "COC(=O)c1ccc(S(=O)(=O)Nc2ccc(F)c(F)c2Nc2ccc(I)cc2F)n1C [compound 0561608]"
  reportedEndpoint: "EC50"
  reportedValue: "0.015 to 0.1 µM"
- compound: "O=S(=O)(Nc1ccc(F)c(F)c1Nc1ccc(-c2ccncc2)cc1F)C1CC1 [compound 0497688]"
  reportedEndpoint: "EC50"
  reportedValue: "> 0.2 µM"
- compound: "COC(=O)c1sccc1S(=O)(=O)Nc1ccc(F)c(F)c1Nc1ccc(I)cc1F [compound 0620926]"
  reportedEndpoint: "EC50"
  reportedValue: "> 0.2 µM"
- compound: "O=S(=O)(Nc1ccc(F)c(F)c1Nc1ccc(I)cc1F)C1CCNCC1 [compound 0561599]"
  reportedEndpoint: "EC50"
  reportedValue: "0.015 to 0.1 µM"

Hey, just so you know, these numbers are from patent US8808742B2.
